Where do the numbers come from? From patent US8901118B2.

So I've got pIC50 readings for CYP2D6 (Homo sapiens, UniProt P10635), take a look.
pIC50: −log10 of the molar value.

CNc1ncnc2[nH]cc(C(=O)c3ccc(NC4CCCCC4)nc3F)c12 : > 5.30
CNc1ncnc2[nH]cc(C(=O)c3ccc(NC4CCCCC4)nc3Cl)c12 : > 5.30
Fc1ccc(Nc2ncc(Cc3c[nH]c4ncc(Cl)cc34)cn2)cc1 : < 5.00

# return pIC50 of COc1ccc(Nc2ccc(C(=O)c3c[nH]c4ncnc(NCc5ccc(C(F)(F)F)nc5)c34)c(F)n2)cn1 (system: CYP2D6 (Homo sapiens, UniProt P10635))
# Sequence (P10635 whole entry): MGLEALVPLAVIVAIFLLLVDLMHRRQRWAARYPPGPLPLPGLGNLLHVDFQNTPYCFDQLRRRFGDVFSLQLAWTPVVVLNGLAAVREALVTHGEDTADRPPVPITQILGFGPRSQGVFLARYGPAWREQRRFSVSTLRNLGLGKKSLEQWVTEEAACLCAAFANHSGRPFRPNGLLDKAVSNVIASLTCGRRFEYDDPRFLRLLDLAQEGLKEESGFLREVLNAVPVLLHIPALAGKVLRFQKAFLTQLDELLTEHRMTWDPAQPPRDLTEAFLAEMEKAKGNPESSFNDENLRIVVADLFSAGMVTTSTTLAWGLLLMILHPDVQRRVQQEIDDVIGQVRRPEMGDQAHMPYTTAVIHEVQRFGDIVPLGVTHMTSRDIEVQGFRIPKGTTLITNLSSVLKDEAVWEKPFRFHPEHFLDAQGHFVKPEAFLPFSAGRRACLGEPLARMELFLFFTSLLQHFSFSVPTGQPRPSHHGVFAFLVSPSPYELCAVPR
< 5.00

====

- SYSTEM_TESTED: BCR-NTRK3 BaF3 cells (Homo sapiens)
- Construct: fused on or other part: P11274 (Breakpoint cluster region protein)
- Sequence (Q16288 whole entry, the tested form may be a part): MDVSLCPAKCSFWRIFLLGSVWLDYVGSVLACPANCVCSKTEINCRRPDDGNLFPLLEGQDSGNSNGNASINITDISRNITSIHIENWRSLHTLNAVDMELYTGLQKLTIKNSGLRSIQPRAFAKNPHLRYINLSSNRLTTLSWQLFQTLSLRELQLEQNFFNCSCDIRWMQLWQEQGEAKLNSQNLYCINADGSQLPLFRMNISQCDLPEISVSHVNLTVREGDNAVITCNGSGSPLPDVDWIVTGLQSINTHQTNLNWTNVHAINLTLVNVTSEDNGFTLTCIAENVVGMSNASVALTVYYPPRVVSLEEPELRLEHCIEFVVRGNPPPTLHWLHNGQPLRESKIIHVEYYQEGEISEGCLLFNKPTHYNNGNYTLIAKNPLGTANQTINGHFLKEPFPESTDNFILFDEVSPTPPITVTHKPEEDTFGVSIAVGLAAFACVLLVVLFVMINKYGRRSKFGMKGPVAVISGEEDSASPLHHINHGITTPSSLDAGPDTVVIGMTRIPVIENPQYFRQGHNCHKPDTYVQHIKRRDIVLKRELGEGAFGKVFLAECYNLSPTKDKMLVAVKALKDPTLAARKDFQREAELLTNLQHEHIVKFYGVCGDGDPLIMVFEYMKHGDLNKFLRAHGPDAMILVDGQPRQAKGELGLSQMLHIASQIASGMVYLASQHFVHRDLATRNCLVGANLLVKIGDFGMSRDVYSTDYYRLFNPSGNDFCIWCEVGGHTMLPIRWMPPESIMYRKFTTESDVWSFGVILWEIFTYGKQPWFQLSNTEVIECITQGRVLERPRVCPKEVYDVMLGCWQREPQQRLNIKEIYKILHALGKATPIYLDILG
- EXPERIMENT_DESCRIPTION: BaF3 BCR-NTRK3 cell proliferation assay (ATPlite)
- DETAILS: read-out: Inhibition of Cell Proliferation IC50, BCR/BaF3 TrkC
- Experimental: Compounds are assessed in a variety of cell based assays. […] On day 1, cells are counted, then centrifuged in a conical tube for 5 minutes at 1000 rpm. […] On day 5, ATPlite 1 step Luminescence Assay System (Perkin Elmer #6016739) is brought to room temperature along with the cell cultures. […] The cells are incubated at room temperature for 10 minutes, then luminescence is read on Safire reader. […]
pIC50: −log10 of the molar value.
EXPERIMENTAL_READOUT: pIC50

Field: example entries. Status: answers known.
COc1cc(Nc2ncc(Cc3c[nH]c4ncc(C)cc34)cn2)ccc1F [Compound P-3022] : > 6.00
Cc1cnc2[nH]cc(Cc3cnc(Nc4ccc(C(F)(F)F)nc4)nc3)c2c1 [Compound P-3018] : > 7.00
CCC(CC)Nc1ncnc2[nH]cc(C(=O)c3ccc(Nc4ccc(OC)nc4)nc3F)c12 [Compound P-4077] : > 8.00
Cc1ccc(Nc2ccc(C(=O)c3c[nH]c4ncnc(NCC(F)(F)F)c34)c(F)n2)cn1 [Compound P-4112] : > 8.00

Dear colleague, could you send me pIC50 for each of the items below? Thanks.
1. COCCOc1ncnc2[nH]cc(Cc3ccc(Nc4ccc(OC)nc4)nc3F)c12 [Compound P-4019]
2. Cc1cnc2[nH]cc(Cc3ccc(Nc4ccc(C)nc4)nc3F)c2c1 [Compound P-3041]
3. COc1ccc(Nc2ccc(Cc3c[nH]c4ncnc(OC)c34)c(F)n2)cn1 [Compound P-4001]
4. Cc1ccc(Nc2ccc(C(=O)c3c[nH]c4ncnc(NC5CCCCC5)c34)c(F)n2)cn1 [Compound P-4111]

> 7.00
> 7.00
> 8.00
> 8.00

====

- SYSTEM_TESTED: BCR-NTRK3 BaF3 cells (Homo sapiens)
- Construct: fused on or other part: P11274 (Breakpoint cluster region protein)
- EXPERIMENT_DESCRIPTION: BaF3 BCR-NTRK3 cell proliferation assay (ATPlite)
- DETAILS: read-out: Inhibition of Cell Proliferation IC50, BCR/BaF3 TrkC
Please go through the items and note down their IC50.

CCc1ccc(Nc2ccc(C(=O)c3c[nH]c4ncnc(NC(C)C)c34)c(F)n2)cn1 [Compound P-4117] : < 10 nM

Dear colleague, could you send me IC50 for each of the items below? Thanks.
1. COc1ccc(Nc2ccc(C(=O)c3c[nH]c4ncnc(NC5CC5)c34)c(F)n2)cn1 [Compound P-4126]
2. Clc1cnc2[nH]cc(Cc3cnc(NC4CC4)nc3)c2c1 [Compound P-3005]
3. Cc1cnc2[nH]cc(Cc3cnc(Nc4cc(OC(C)C)n[nH]4)nc3)c2c1 [Compound P-3038]

< 10 nM
> 10000 nM
< 1000 nM

====

Please go through the items and note down their IC50.
- SYSTEM_TESTED: BCR-NTRK2 BaF3 cells (Homo sapiens)
- Construct: fused on or other part: P11274 (Breakpoint cluster region protein)
- Sequence (Q16620 538-807): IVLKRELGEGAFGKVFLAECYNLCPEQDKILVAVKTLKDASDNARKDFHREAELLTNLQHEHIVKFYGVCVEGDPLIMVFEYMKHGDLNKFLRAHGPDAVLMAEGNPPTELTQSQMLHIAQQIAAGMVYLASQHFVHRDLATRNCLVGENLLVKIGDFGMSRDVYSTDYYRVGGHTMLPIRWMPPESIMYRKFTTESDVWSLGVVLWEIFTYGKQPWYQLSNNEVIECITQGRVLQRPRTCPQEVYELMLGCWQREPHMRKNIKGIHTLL
- EXPERIMENT_DESCRIPTION: BaF3 BCR-NTRK2 cell proliferation assay (ATPlite)
- Assay type: cell-based
- DETAILS: read-out: Inhibition of Cell Proliferation IC50, BCR/BaF3 TrkB

Field: example entries. Status: answers known.
Cc1ccc(Nc2ccc(Cc3c[nH]c4ncc(Cl)cc34)c(F)n2)cn1 : < 100 nM
O=C(c1ccc(NC2CCC(F)(F)CC2)nc1)c1c[nH]c2ncnc(NCC(F)(F)F)c12 : < 100 nM
CCn1cc(Nc2ccc(Cc3c[nH]c4ncnc(OC)c34)c(F)n2)cn1 : < 1000 nM

// next entry
Quickly give me recorded IC50 for CNc1ncnc2[nH]cc(C(=O)c3ccc(Nc4ccc(OC)nc4)nc3F)c12
< 10 nM

====

- SYSTEM_TESTED: BCR-NTRK1 BaF3 cells (Homo sapiens, UniProt P04629)
- Construct: fused on or other part: P11274 (Breakpoint cluster region protein)
- Sequence (P04629 510-781): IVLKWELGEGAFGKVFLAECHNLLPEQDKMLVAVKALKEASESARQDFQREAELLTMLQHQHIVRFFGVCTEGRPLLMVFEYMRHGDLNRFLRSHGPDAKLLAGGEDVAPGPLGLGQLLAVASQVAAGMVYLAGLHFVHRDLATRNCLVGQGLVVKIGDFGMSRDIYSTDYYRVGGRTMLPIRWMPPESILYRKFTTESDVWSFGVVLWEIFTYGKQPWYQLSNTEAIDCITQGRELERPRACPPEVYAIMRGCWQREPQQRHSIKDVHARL
- EXPERIMENT_DESCRIPTION: BaF3 BCR-NTRK1 cell proliferation assay (ATPlite)
- DETAILS: read-out: Inhibition of Cell Proliferation IC50, BCR/BaF3 TrkA
EXPERIMENTAL_READOUT: IC50

Nc1ncnc2[nH]cc(C(=O)c3ccc(NC4CCC(F)(F)CC4)nc3Cl)c12 : < 1000 nM
CCCNc1ncnc2[nH]cc(C(=O)c3ccc(Nc4cncc(OC)c4)nc3F)c12 : < 100 nM
O=C(c1ccc(NC2CCC(F)(F)CC2)nc1)c1c[nH]c2ncnc(NC3CC3)c12 : < 100 nM
CCc1ccc(Nc2ccc(C(=O)c3c[nH]c4ncnc(NC5CCOCC5)c34)c(F)n2)cn1 : < 10 nM
Fc1nc(NC2CCC(F)(F)CC2)ccc1Cc1c[nH]c2ncnc(NC3CC3)c12 : < 1000 nM

Dear colleague, could you send me IC50 for each of the items below? Thanks.
1. O=C(c1ccc(NC2CCC(F)(F)CC2)nc1F)c1c[nH]c2ncnc(NCC(F)(F)F)c12
2. CCOc1ncnc2[nH]cc(Cc3ccc(Nc4ccc(OC)nc4)nc3F)c12
3. COc1ccc(Nc2ccc(C(=O)c3c[nH]c4ncnc(NCc5ccc(C(F)(F)F)nc5)c34)c(F)n2)cn1
4. CCOc1ncnc2[nH]cc(Cc3ccc(Nc4cnn(CC)c4)nc3F)c12
5. Cc1cnc2[nH]cc(Cc3cnc(Nc4ccc(C(F)(F)F)nc4)nc3)c2c1
6. COc1ccc(Nc2ccc(C(=O)c3c[nH]c4ncnc(C5CC5)c34)c(F)n2)cn1
7. COc1ncnc2[nH]cc(Cc3ccc(Nc4ccc(C)nc4)nc3F)c12

< 100 nM
< 100 nM
< 100 nM
< 1000 nM
< 1000 nM
< 10 nM
< 1000 nM

====

- SYSTEM_TESTED: BCR-NTRK2 BaF3 cells (Homo sapiens)
- Construct: fused on or other part: P11274 (Breakpoint cluster region protein)
- EXPERIMENT_DESCRIPTION: BaF3 BCR-NTRK2 cell proliferation assay (ATPlite)
- DETAILS: read-out: Inhibition of Cell Proliferation IC50, BCR/BaF3 TrkB
pIC50: −log10 of the molar value.
EXPERIMENTAL_READOUT: pIC50

Field: example entries. Status: answers known.
Nc1ncnc2[nH]cc(C(=O)c3ccc(NC4CCC(F)(F)CC4)nc3Cl)c12 : > 6.00
CCc1ccc(Nc2ccc(C(=O)c3c[nH]c4ncnc(NC5CCCC5)c34)c(F)n2)cn1 : > 8.00
CCOc1ccc(Nc2ccc(Cc3c[nH]c4ncnc(OC)c34)c(F)n2)cn1 : > 8.00
Fc1nc(NC2CCC(F)(F)CC2)ccc1Cc1c[nH]c2ncc(Cl)cc12 : < 5.00
CCc1ccc(Nc2ccc(C(=O)c3c[nH]c4ncnc(NCC(F)(F)F)c34)c(F)n2)cn1 : > 8.00

Dear colleague, could you send me pIC50 for each of the items below? Thanks.
1. COc1cncc(Nc2ccc(C(=O)c3c[nH]c4ncnc(NC(C)C)c34)c(F)n2)c1
2. COc1ccc(Nc2ccc(Cc3c[nH]c4ncnc(C5CC5)c34)c(F)n2)cn1
3. Cc1cncc(Nc2ccc(Cc3c[nH]c4ncnc(C5CC5)c34)c(F)n2)c1
4. COc1ccc(Nc2ncc(Cc3c[nH]c4ncc(C)cc34)cn2)cn1
5. CCCCNc1ncnc2[nH]cc(C(=O)c3ccc(Nc4ccc(CC)nc4)nc3F)c12

1: > 7.00; 2: > 7.00; 3: > 6.00; 4: > 7.00; 5: > 8.00

====

pIC50: −log10 of the molar value.
So I've got pIC50 readings for CYP2C19 (Homo sapiens, UniProt P33261), take a look.

Field: example entries. Status: answers known.
O=C(c1ccc(Nc2ccc(C(F)(F)F)nc2)nc1F)c1c[nH]c2ncnc(NC3CC3)c12 [Compound P-4091] : < 5.00
COCCOc1ncnc2[nH]cc(Cc3ccc(Nc4ccc(OC)nc4)nc3F)c12 [Compound P-4019] : 5.00 to 5.30

Dear colleague, could you send me pIC50 for each of the items below? Thanks.
1. CCc1ccc(Nc2ccc(Cc3c[nH]c4ncc(C)cc34)c(F)n2)cn1 [Compound P-3048]
2. CCc1ccc(Nc2ccc(C(=O)c3c[nH]c4ncc(C)cc34)c(F)n2)cn1 [Compound P-3049]
3. CCc1ccc(Nc2ccc(Cc3c[nH]c4ncnc(C)c34)c(F)n2)cn1 [Compound P-4009]
4. Cc1cnc2[nH]cc(C(=O)c3ccc(Nc4ccc(C)nc4)nc3F)c2c1 [Compound P-3043]

> 5.30
< 5.00
5.00 to 5.30
< 5.00

Dear colleague, could you send me pIC50 for each of the items below? Thanks.
1. Fc1cc(Cc2c[nH]c3ncnc(NC4CC4)c23)cnc1NC1CCC(F)(F)CC1 [Compound P-4127]
2. COc1ccc(Nc2ccc(Cc3c[nH]c4ncnc(C)c34)c(F)n2)cn1 [Compound P-4002]
3. Clc1ccc(Nc2ncc(Cc3c[nH]c4ncc(Cl)cc34)cn2)cc1 [Compound P-3011]
4. CCc1ccc(Nc2ccc(C(=O)c3c[nH]c4ncnc(N)c34)c(F)n2)cn1 [Compound P-4065]
5. Fc1nc(NC2CCC(F)(F)CC2)ccc1Cc1c[nH]c2ncnc(NCC(F)(F)F)c12 [Compound P-4128]
6. CC1CCC(Nc2ncc(Cc3c[nH]c4ncc(Cl)cc34)cn2)CC1 (stereo not drawn) [Compound P-3009]

1. 5.00 to 5.30
2. < 5.00
3. < 5.00
4. < 5.00
5. < 5.00
6. > 5.30
